Reference source for all entries: the supplement of paper PMC8728848

Tested Target: Gal(b1-4)GlcNAc(b1-2)[Gal(b1-4)GlcNAc(b1-4)]Man(a1-3)[GlcNAc(b1-4)][Gal(b1-4)GlcNAc(b1-2)Man(a1-6)]Man(b1-4)GlcNAc(b1-4)GlcNAc
Assay Protocol: glycan array binding signal (z-score within array); higher = stronger binding
Cond: glycan notation: IUPAC condensed, linker removed
Shown is part of a subset that was picked to be rich in the strongest signals.
Quantity: glycan array binding signal (z-score)
One number for each entry.

Below, each entry is followed by its recorded glycan array binding signal (z-score) result.
| Binder | glycan array binding signal (z-score) |
| --- | --- |
| LecRKVI.2 (protein) RTTTNFAFRGFNGNQSKIRIEGAAMIKPDGLLRLTDRKSNVTGTAFYHKPVRLLNRNSTNVTIRSFSTSFVFVIIPSSSSNKGFGFTFTLSPTPYRLNAGSAQYLGVFNKENNGDPRNHVFAVEFDTVQGSRDDNTDRIGNDIGLNYNSRTSDLQEPVVYYNNDDHNKKEDFQLESGNPIQALLEYDGATQMLNVTVYPARLGFKPTKPLISQHVPKLLEIVQEEMYVGFTASTGKGQSSAHYVMGWSFSSGGERPIADVLILSELPPPPPNKAKKEGLNS | -0.319 |
| ABA (Agaricus bisporus), Q00022 (protein) MTYTISIRVYQTTPKGFFRPVERTNWKYANGGTWDEVRGEYVLTMGGSGTSGSLRFVSSDTDESFVATFGVHNYKRWCDIVTNLTNEQTALVINQEYYGVPIRDQARENQLTSYNVANAKGRRFAIEYTVTEGDNLKANLIIG | -0.25 |

Could you now consider this next binder?
What value of glycan array binding signal (z-score) has been recorded for this entry: CAA (Caragana arborescens) (protein) VAVEFDTFDNPDWDPRTKHIGIDVNSIRSNKTTQWGFWNRQVADVDISYEASSKTLNVSLYYPGESYIVTDVVDLKDILPEWVRIGF
-0.239
